Cited source for all entries: paper PMC6286365

Target: alkaline phosphatase
Assay: Counter assay without nSMase2 and SM, phosphorylcholine as substrate (enzyme-coupled detection reactions)
Settings: no nSMase2, no SM; phosphorylcholine 2 μM as substrate
pIC50: −log10 of the molar value.
value kind: pIC50

For the compound COc1cc(-c2nc(-c3cccs3)c(-c3ccccc3)[nH]2)cc(OC)c1O , give its measured pIC50 value.
< 4.00

###

Test: Metabolic stability in mouse liver microsomes with NADPH
Assay type: in vitro ADME
Details: pH 7.4, 1 μM compound, read-out: percent remaining
value kind: remaining at 1 h, 1 μM (%)
Field format: number, assumed %, no unit text.

Supply measured remaining at 1 h, 1 μM of COc1cc(-c2nc(-c3cccs3)c(-c3ccccc3)[nH]2)cc(OC)c1O in your reply.
100
